Tested on: NCI/ADR-RES
TEST DETAILS: Antiproliferative activity against human NCI/ADR-RES cells assessed as cell growth inhibition measured after 48 hrs by sulforhodamine B assay
Type: functional, cell-based
ENDPOINT: pIC50
Scale: negative log10 of molar concentration, which is what pIC50 denotes.

CCNC(=O)Nc1ccc(S(=O)(=O)Oc2ccccc2CC)cc1 : 5.45

Let us move to another entry and its pIC50.
Inquiry: GET /values?readout=pIC50&item= Cc1c(-c2ccc(-c3ccccc3F)cc2)nc2ccc(F)cc2c1C(=O)O
Reply text: 5.66

* * *

# maps each entry to its pIC50
Tested on: SK-MEL-28
TEST DETAILS: Antiproliferative activity against human SK-MEL-28 cells assessed as cell growth inhibition measured after 48 hrs by sulforhodamine B assay
Assay type: functional, cell-based
MEASUREMENT SETUP: SK-MEL-28, 48 h
Scale: negative log10 of molar concentration, which is what pIC50 denotes.

Cc1c(-c2ccc(-c3ccccc3F)cc2)nc2ccc(F)cc2c1C(=O)O [BREQUINAR] : 5.00

Let us move to another entry and its pIC50.
Inquiry: Which measured pIC50 belongs to CCNC(=O)Nc1ccc(S(=O)(=O)Oc2ccccc2CC)cc1 , tested on SK-MEL-28?
Reply text: 4.93
